molecular target: Human FRA on IGROV-1 human ovarian adenocarcinoma cells (human, UniProt P15328 25-234); test: cell-based or functional assay
Sequence (P15328 25-234 limits assumed): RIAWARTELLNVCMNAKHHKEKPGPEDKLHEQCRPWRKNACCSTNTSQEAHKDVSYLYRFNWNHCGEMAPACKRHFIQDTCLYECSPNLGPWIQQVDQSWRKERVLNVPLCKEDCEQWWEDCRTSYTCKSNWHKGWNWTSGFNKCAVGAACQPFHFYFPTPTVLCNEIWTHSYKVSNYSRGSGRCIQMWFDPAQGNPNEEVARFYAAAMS
This listing pairs binders with measured INTL % (15 min).
property label: INTL % (15 min)

>  <binder>
MORAb-003 anti-FRA antibody, lot NB809-70 (CuCl supplement; harvested 13 days after initiation of culture) (antibody, human IgG1, kappa, V domains shown, N-linked neutral glycans at Asn299 in SEQ ID NO: 5) VH: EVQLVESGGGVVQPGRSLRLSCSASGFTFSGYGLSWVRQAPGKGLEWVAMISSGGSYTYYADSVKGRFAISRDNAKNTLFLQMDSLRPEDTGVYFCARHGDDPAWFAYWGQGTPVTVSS VL: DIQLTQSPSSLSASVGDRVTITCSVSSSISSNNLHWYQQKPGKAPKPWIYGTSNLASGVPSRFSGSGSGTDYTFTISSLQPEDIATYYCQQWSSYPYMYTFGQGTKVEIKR

>  <measured>
6%

$$$$
>  <binder>
MORAb-003 anti-FRA antibody, lot NB810-11 (galactose supplement; harvested 14 days after initiation of culture) (antibody, human IgG1, kappa, V domains shown, N-linked neutral glycans at Asn299 in SEQ ID NO: 5) VH: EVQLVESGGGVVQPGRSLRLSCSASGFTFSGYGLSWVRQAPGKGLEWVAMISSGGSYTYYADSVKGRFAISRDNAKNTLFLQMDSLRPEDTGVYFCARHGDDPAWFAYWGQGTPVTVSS VL: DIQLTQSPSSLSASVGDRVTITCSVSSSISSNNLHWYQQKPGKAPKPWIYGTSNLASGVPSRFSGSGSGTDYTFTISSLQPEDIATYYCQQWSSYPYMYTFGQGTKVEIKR

>  <measured>
3%

$$$$
>  <binder>
MORAb-003 anti-FRA antibody, lot NB809-68 (high CO2; harvested 13 days after initiation of culture) (antibody, human IgG1, kappa, V domains shown, N-linked neutral glycans at Asn299 in SEQ ID NO: 5) VH: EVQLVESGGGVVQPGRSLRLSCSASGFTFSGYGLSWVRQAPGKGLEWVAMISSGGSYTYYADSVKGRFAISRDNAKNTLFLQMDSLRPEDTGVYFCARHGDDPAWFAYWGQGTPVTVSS VL: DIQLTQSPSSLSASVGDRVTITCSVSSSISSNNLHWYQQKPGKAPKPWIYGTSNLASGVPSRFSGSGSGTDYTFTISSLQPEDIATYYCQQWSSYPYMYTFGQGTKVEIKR

>  <measured>
4%

$$$$
>  <binder>
MORAb-003 anti-FRA antibody, lot NB809-69 (10 mM Na butyrate; harvested 13 days after initiation of culture) (antibody, human IgG1, kappa, V domains shown, N-linked neutral glycans at Asn299 in SEQ ID NO: 5) VH: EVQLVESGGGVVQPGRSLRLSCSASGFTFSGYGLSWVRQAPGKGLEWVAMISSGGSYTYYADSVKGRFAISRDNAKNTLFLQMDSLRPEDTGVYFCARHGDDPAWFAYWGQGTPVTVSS VL: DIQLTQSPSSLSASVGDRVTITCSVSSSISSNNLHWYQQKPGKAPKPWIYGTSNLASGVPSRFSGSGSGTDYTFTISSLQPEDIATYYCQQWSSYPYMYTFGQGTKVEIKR

>  <measured>
4%

$$$$
>  <binder>
MORAb-003 anti-FRA antibody, lot NB859-24 (harvested 10 days after initiation of culture) (antibody, human IgG1, kappa, V domains shown, N-linked neutral glycans at Asn299 in SEQ ID NO: 5, also called Day 10 harvest) VH: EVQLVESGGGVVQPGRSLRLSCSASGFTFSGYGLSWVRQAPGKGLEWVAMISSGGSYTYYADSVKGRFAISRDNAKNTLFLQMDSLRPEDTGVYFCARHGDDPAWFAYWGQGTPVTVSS VL: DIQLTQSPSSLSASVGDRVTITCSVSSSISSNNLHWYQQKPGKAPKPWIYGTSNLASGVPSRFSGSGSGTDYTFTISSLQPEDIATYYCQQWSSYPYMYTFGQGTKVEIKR

>  <measured>
1%

$$$$
